- Tested System: PDE4B (Homo sapiens, UniProt Q07343)
- Sequence (Q07343 whole entry): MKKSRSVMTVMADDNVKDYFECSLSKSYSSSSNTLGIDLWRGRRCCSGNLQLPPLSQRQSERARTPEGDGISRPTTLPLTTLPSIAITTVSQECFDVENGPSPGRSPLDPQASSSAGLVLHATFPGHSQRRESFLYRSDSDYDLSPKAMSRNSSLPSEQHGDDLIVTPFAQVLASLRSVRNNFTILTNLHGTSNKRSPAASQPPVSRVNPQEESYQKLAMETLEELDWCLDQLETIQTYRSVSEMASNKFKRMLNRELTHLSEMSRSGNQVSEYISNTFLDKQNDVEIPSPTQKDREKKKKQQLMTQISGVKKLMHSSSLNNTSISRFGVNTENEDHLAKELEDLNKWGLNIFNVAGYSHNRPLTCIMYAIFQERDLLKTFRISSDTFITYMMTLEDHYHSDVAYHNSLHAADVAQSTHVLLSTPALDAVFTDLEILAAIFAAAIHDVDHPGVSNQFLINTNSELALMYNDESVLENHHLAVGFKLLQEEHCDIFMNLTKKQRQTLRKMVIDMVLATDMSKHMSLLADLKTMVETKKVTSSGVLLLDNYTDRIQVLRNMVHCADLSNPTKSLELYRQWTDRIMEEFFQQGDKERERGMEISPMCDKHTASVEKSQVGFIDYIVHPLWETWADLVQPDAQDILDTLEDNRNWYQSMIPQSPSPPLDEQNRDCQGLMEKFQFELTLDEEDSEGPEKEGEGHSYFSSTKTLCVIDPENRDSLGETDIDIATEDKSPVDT
- Experiment: In-vitro assay for PDE4 enzymes, real-time enzyme-coupled spectrophotometric assay, PDE4B Activity (Table 10)
- Type: biochemical
- Protocol Conditions: human PDE4B (hPDE4B), enzyme-coupled spectrophotometric assay; read-out: PDE4B Activity, hPDE4B
pIC50: −log10 of the molar value. Structures can show the parent of a compound that is named as a salt.
Entries and their pIC50

Known results for compounds:
[[record]]
compound = "CNC(=O)NCc1ccc(Cc2ccc(OC)c(-c3cccc(Cl)c3)c2F)cn1 [P-460, hydrochloride]"
reported_property = "pIC50"
meas_value = "> 5.30"

[[record]]
compound = "COc1ccc(Cc2ccc(Nc3nccn3C)cc2)cc1-c1cccc(Cl)c1"
reported_property = "pIC50"
meas_value = "> 5.30"

[[record]]
compound = "COc1ccc(Cc2ccc(F)cc2)c(F)c1-c1cccc(Cl)c1"
reported_property = "pIC50"
meas_value = "> 5.30"


Prompt: Tell me pIC50 reported for COc1cc(F)c(C(O)c2ccc(F)cc2)cc1-c1cccc([N+](=O)[O-])c1 (stereo not shown)
Response: 4.70 to 5.30

Prompt: Tell me pIC50 reported for "COc1ccc(Cc2ccc(F)nc2)c(F)c1-c1cccc(Cl)c1"
Response: > 5.30

Prompt: Tell me pIC50 reported for "COc1ccc(CN2CCCC2=O)cc1-c1cccc(-c2nnco2)c1"
Response: 4.40 to 4.68

Prompt: Tell me pIC50 reported for "O=[N+]([O-])c1cccc(-c2c(OC(F)F)ccc(Cc3ccc(F)cc3)c2F)c1"
Response: > 5.30

Prompt: Tell me pIC50 reported for "COc1ccc(Cc2ccc(NS(C)(=O)=O)cc2)c(F)c1-c1cccc(C(C)=O)c1"
Response: > 5.30

Prompt: Tell me pIC50 reported for "COc1ccc(Cc2ccc(CN)c(F)c2)c(F)c1-c1cccc(Cl)c1"
Response: 4.70 to 5.30

Prompt: Tell me pIC50 reported for "CCNC(=O)NCc1ccc(Cc2ccc(OC)c(-c3cccc(Cl)c3)c2F)cn1"
Response: > 5.30

Prompt: Tell me pIC50 reported for "NC(=O)Nc1ccc(Cc2ccc(OC[C@@H]3CCCN3)c(-c3cccc(Cl)c3)c2)cc1"
Response: 4.70 to 5.30

Prompt: Tell me pIC50 reported for "COc1ccc(Cc2ccc(S(N)(=O)=O)cc2)cc1-c1cccc(Cl)c1"
Response: > 5.30

Prompt: Tell me pIC50 reported for "COc1ccc(Cc2ccc(CNC(N)=O)c(F)c2)c(F)c1-c1cccc(Cl)c1"
Response: > 5.30

Prompt: Tell me pIC50 reported for "COc1ccc(Cc2ccnc(N3CCN(C(N)=O)CC3)c2)c(F)c1-c1cccc(Cl)c1"
Response: > 5.30

Prompt: Tell me pIC50 reported for "COC(=O)c1cccc(-c2cc(Cn3cncn3)ccc2OC)c1"
Response: 4.70 to 5.30

Prompt: Tell me pIC50 reported for "CCNC(=O)Nc1ccc(Cc2ccc(OC)c(-c3cccc(Cl)c3)c2F)cc1"
Response: > 5.30

Prompt: Tell me pIC50 reported for "COc1ccc(Cc2cccc(O)c2)c(F)c1-c1cccc(Cl)c1"
Response: > 5.30

Prompt: Tell me pIC50 reported for "COc1ccc(Cn2cncn2)cc1-c1cccc(C(C)=O)c1"
Response: 4.70 to 5.30

Prompt: Tell me pIC50 reported for "COc1ccc(CN2C(=O)CC[C@H]2CO)cc1-c1cccc([N+](=O)[O-])c1"
Response: 4.70 to 5.30

Values were extracted from patent US8791267B2.
